MEASURED_ON: T1, hu-M-IL1RAP construct, positions S21-T367 (extracellular domain of the membrane form of human IL1RAP) (human, UniProt Q9NPH3 21-367)
T1 construct: Biotinylated when captured on the Biacore chip
T1 sequence: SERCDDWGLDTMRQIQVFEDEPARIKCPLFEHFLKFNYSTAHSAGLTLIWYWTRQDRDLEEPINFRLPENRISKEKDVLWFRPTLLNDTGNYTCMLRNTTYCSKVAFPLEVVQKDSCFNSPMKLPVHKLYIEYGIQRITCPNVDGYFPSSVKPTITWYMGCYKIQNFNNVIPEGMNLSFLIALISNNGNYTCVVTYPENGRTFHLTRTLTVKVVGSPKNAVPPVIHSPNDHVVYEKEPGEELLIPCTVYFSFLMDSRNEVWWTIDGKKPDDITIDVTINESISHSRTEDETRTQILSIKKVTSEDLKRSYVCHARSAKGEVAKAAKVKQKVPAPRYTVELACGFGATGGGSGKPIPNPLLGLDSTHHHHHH
ASSAY_TEXT: SPR, Fab analyte, 37 C
PROPERTY_MEASURED: kon (M⁻¹ s⁻¹)
// note: answer is a bare numeric in M⁻¹ s⁻¹

# query: kon of entry K13 Fab (VL A51Y/W92I) (Fab, V domains shown, Fab with 8xHis tag) VH: EVQLVESGGGLVQPGGSLRLSCAASGFTFSNYAMSWVRQAPGKGLEWVATVTEGGDYNYYLDDVKGRFTISRDNAKNSLYLQMNSLRAEDTAVYYCARDRWPYFFDYWGQGTLVTVSS VL: DIQMTQSPSSLSASVGDRVTITCRASENIYSNLAWYQQKPGKSPKLLVYGYKNLADGVPSRFSGSGSGTDYTLTISSLQPEDFATYYCQHFITTPRTFGGGTKVEIK
4.01e+06

Can you look up the measured kon of H7 Fab (VH F29E/N57G/R96A) (Fab, V domains shown, Fab with 8xHis tag) VH: EVQLVESGGGLVQPGGSLRLSCAASGFTESNYAMSWVRQAPGKGLEWVATVTEGGDYGYYLDDVKGRFTISRDNAKNSLYLQMNSLRAEDTAVYYCARDAWPYFFDYWGQGTLVTVSS VL: DIQMTQSPSSLSASVGDRVTITCRASENIYSNLAWYQQKPGKSPKLLVYGAKNLADGVPSRFSGSGSGTDYTLTISSLQPEDFATYYCQHFWTTPRTFGGGTKVEIK for me?
5.13e+06

Would you mind telling me what kon value was observed for K10 Fab (VL A51Y) (Fab, V domains shown, Fab with 8xHis tag) VH: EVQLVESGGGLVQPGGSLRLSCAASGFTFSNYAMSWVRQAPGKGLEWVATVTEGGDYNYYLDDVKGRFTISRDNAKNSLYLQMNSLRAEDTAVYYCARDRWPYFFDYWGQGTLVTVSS VL: DIQMTQSPSSLSASVGDRVTITCRASENIYSNLAWYQQKPGKSPKLLVYGYKNLADGVPSRFSGSGSGTDYTLTISSLQPEDFATYYCQHFWTTPRTFGGGTKVEIK ?
5.12e+06

Reported kon for H10 Fab (VH F29S/D55G/R96S) (Fab, V domains shown, Fab with 8xHis tag) VH: EVQLVESGGGLVQPGGSLRLSCAASGFTSSNYAMSWVRQAPGKGLEWVATVTEGGGYNYYLDDVKGRFTISRDNAKNSLYLQMNSLRAEDTAVYYCARDSWPYFFDYWGQGTLVTVSS VL: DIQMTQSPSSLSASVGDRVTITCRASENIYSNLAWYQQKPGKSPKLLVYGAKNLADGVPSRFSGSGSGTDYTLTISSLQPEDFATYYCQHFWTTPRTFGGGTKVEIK : what is it?
5.34e+06

What value of kon has been recorded for this entry: H11 Fab (VH W97F) (Fab, V domains shown, Fab with 8xHis tag) VH: EVQLVESGGGLVQPGGSLRLSCAASGFTFSNYAMSWVRQAPGKGLEWVATVTEGGDYNYYLDDVKGRFTISRDNAKNSLYLQMNSLRAEDTAVYYCARDRFPYFFDYWGQGTLVTVSS VL: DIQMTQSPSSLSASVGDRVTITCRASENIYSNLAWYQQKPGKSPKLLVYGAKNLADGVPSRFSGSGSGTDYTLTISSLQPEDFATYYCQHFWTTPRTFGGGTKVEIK
9.58e+06

State the recorded kon for this entry: H6 Fab (VH R96Q) (Fab, V domains shown, Fab with 8xHis tag) VH: EVQLVESGGGLVQPGGSLRLSCAASGFTFSNYAMSWVRQAPGKGLEWVATVTEGGDYNYYLDDVKGRFTISRDNAKNSLYLQMNSLRAEDTAVYYCARDQWPYFFDYWGQGTLVTVSS VL: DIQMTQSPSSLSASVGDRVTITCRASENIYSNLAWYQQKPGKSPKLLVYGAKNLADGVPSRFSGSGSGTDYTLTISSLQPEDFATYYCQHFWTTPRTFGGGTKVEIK
3.76e+06

Given the entry H8 Fab (VH F29S/E52aV/R96A) (Fab, V domains shown, Fab with 8xHis tag) VH: EVQLVESGGGLVQPGGSLRLSCAASGFTSSNYAMSWVRQAPGKGLEWVATVTVGGDYNYYLDDVKGRFTISRDNAKNSLYLQMNSLRAEDTAVYYCARDAWPYFFDYWGQGTLVTVSS VL: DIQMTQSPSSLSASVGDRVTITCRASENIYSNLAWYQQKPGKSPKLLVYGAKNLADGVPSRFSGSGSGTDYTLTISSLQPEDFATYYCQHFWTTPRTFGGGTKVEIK , report its measured kon.
5.27e+06
